- System: A498
- Protocol Text: NCI tumour cell line growth inhibition, 48 h
Calls of active or inactive are those of the source. No stated cut-off is given here; in the data, active = GI50 up to about 1.1 µM and inactive = higher.
Measurement Kind: GI50

Recorded results for 5 compounds are shown here.
>>> result("O=C(CSCC(=O)N/N=C/c1ccncc1)N/N=C/c1ccncc1")
"> 100 µM (inactive)"
>>> result("O=C1c2ccccc2C(=O)c2nc3c(O)cccc3cc21")
"25.9 µM (inactive)"
>>> result("O=C1C=C(C2=C(C3=CC(=O)c4ccccc4C3=O)C(=O)c3ccccc3C2=O)C(=O)c2ccccc21")
"16.9 µM (inactive)"
>>> result("O=C(NCCN(CCNC(=O)c1cccc(=O)n1O)CCN(CCNC(=O)c1cccc(=O)n1O)CCNC(=O)c1cccc(=O)n1O)c1cccc(=O)n1O")
"> 100 µM (inactive)"
>>> result("NCCCCNCCCNC(=O)c1nc(-c2csc(CCN)n2)sc1Cl")
"> 100 µM (inactive)"

Ask | I would be grateful if you could share the reported GI50 for CN(C)C(=O)N(CCCl)N=O .
Reply | > 100 µM (inactive)

Ask | Quick one: GI50 of CC(C)(C)/N=C/N1C=Cc2nc3ccccc3cc2C1 ?
Reply | > 100 µM (inactive)
